# Assayed System: CD71 on SK-BR-3 cells (human, UniProt P02786 1-760)
# Sequence (P02786 whole entry): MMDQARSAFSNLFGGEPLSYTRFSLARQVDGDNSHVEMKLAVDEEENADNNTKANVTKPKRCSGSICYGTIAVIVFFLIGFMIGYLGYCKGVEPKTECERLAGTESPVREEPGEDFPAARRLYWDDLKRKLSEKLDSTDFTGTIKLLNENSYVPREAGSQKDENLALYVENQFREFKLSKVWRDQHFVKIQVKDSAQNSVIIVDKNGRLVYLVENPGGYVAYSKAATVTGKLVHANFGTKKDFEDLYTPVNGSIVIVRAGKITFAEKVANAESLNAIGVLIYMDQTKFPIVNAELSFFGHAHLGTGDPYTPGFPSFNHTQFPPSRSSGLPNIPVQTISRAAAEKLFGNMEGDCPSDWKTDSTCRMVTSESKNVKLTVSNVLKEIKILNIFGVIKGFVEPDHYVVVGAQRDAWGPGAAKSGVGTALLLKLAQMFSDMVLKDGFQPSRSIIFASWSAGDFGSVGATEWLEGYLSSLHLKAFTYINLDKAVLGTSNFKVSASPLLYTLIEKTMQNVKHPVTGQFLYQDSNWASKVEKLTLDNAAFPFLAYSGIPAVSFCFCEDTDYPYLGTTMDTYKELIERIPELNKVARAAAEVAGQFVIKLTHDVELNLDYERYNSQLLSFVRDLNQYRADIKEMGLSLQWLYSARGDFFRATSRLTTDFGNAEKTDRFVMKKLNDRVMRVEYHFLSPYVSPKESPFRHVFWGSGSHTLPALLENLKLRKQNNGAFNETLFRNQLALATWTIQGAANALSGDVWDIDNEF
# Procedure Details: cell-based or functional assay
Recorded IC50, SKBR-3 viability, MMAF conjugate, first unlabelled column (+/- human transferrin), one value per entry.
Numbers only; they are read as nM.

SEQ ID NO 302 (designed binder, FN3 domain) MLPAPKNLVVSRVTEDSARLSWTAPDAAFDSFDIYYPEYYDRGEAIVLTVPGSERSYDLTGLKPGTEYTVYIDGVKGGGGSGPLSAIFTT :: 164

Read the next record carefully.
Report IC50, SKBR-3 viability, MMAF conjugate, first unlabelled column (+/- human transferrin) for SEQ ID NO 259 (designed binder, FN3 domain) MLPAPKNLVVSRVTEDSARLSWTAPDAAFDSFTIEYFEFVDAGEAIVLTVPGSERSYDLTGLKPGTEYWVEIWGVKGGSWSKPLSAIFTT please.
27.5

Values compiled from patent US20210145976A1.
